# Tested target: Rap guanine nucleotide exchange factor 4 (Homo sapiens) (UniProt Q8WZA2)
# Sequence (Q8WZA2 whole entry, looked up): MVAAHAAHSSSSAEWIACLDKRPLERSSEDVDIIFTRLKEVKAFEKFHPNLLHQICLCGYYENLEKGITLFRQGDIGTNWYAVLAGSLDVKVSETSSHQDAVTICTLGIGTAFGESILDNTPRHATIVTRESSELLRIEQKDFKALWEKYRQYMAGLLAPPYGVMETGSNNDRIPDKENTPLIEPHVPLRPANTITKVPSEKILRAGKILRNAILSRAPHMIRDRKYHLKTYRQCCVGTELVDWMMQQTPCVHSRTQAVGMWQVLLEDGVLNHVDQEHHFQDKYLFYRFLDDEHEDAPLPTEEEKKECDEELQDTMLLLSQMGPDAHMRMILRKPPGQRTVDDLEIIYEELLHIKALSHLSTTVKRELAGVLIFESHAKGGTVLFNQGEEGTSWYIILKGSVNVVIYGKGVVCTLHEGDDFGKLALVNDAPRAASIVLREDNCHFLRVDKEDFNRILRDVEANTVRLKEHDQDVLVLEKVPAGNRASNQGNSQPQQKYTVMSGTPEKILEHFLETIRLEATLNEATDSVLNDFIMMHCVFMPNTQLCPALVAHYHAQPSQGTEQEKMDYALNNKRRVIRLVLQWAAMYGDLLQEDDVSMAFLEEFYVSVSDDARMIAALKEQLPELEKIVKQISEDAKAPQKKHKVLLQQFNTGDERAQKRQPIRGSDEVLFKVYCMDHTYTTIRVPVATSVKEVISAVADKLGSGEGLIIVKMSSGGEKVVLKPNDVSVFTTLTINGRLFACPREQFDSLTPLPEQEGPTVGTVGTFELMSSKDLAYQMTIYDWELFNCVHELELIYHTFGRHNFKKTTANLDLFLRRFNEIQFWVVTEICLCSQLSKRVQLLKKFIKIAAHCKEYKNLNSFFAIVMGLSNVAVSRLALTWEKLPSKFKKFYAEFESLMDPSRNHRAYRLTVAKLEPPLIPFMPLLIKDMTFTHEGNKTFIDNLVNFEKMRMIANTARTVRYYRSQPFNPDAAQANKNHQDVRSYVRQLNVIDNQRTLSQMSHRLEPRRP
# Experimental details: Confirmatory qHTS for agonist of cAMP-regulated guanine nucleotide exchange factor 4 (EPAC2) (AID 1645884);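 further: nucleotide exchange releases bodipy-GDP from Rap1 and this lowers its fluorescence; nearly all actives have a fitted effect of over 65% in size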
# Condition: EPAC2 GEF activity, Rap1B-BODIPY-GDP fluorescence; series mostly up to 154 µM
Records with an inconclusive call do not appear. Calls of active or inactive are those of the source. The call rests on the fitted dose curve; in most records, active means well fitted activation curve with a large enough effect; inconclusive means small, poorly fitted or top-dose-only effect; inactive means no such curve, though single readings can be large or run the other way.

- Compound: "O=C1CNC(=O)c2c(nc3n2CCC3)N1"
  activation: "inactive"
- Compound: "COc1ccc(C2C=C(c3ccccc3)Nc3nnnn32)cc1 (stereo unspecified)"
  activation: "inactive"
- Compound: "O=c1cc(CSc2ccccc2)nc(-c2ccncc2)[nH]1"
  activation: "inactive"
- Compound: "CC(C)c1ccc(NS(=O)(=O)c2cn(C)c(=O)n(C)c2=O)cc1"
  activation: "inactive"
- Compound: "COC(=O)c1ccc2nc(-c3ccccc3)c(Cc3ccc(C)cc3)n2c1"
  activation: "inactive"
- Compound: "Cc1ccc(S(=O)(=O)/N=C2\\C=C(Nc3cccc(C(=O)O)c3)C(=O)c3ccccc32)c(C)c1"
  activation: "inactive"
- Compound: "c1ccc(OCCCn2ccnc2)cc1"
  activation: "inactive"
- Compound: "CC(C)(C)C(=O)Nc1ccc2nc(SCC(=O)N3CCc4ccccc43)sc2c1"
  activation: "inactive"
- Compound: "Cc1ccc(NC(=O)COC(=O)Cn2c(C)csc2=O)c([N+](=O)[O-])c1"
  activation: "inactive"

###

# Tested target: Rap guanine nucleotide exchange factor 3 (Homo sapiens) (UniProt O95398)
# Sequence (O95398 whole entry, looked up): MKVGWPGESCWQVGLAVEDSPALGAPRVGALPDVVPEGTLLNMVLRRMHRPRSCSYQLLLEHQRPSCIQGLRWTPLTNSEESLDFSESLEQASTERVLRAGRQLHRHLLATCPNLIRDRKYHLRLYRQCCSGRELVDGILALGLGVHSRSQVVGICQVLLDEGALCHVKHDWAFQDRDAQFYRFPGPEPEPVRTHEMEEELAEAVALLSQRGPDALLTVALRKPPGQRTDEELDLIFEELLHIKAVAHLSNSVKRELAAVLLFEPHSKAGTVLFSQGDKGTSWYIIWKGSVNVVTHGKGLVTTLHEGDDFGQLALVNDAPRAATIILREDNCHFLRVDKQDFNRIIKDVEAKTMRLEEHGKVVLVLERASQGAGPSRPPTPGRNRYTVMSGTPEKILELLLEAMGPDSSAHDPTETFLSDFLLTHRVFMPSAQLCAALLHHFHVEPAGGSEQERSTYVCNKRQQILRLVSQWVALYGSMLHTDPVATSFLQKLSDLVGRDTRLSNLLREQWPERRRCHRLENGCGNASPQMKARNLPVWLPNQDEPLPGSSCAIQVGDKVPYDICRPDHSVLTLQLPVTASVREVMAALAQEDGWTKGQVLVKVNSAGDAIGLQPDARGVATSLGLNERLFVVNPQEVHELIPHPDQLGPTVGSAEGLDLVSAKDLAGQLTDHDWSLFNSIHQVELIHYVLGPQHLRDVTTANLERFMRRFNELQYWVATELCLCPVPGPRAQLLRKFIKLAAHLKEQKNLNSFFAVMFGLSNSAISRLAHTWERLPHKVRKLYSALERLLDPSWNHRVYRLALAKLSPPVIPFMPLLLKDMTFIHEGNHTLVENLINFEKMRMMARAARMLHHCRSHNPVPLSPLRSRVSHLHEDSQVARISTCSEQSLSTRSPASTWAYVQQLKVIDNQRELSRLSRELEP
# Experimental details: Confirmatory qHTS for agonist of cAMP-regulated guanine nucleotide exchange factor 3 (EPAC1) (AID 1645881); further: nearly all actives have a fitted effect of over 75% in size;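 on activation: EPAC1 catalysed release of BODIPY-GDP from Rap1B seen as fluorescence loss; 100% = effect of cAMP agonist control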
# Condition: EPAC1 Rap1B BODIPY-GDP exchange fluorescence; series mostly up to 154 µM
Records with an inconclusive call do not appear. The source made the active and inactive calls. The call rests on the fitted dose curve; in most records, active means well fitted activation curve with a large enough effect; inconclusive means small, poorly fitted or top-dose-only effect; inactive means no such curve, though single readings can be large or run the other way.
Possible outcomes: 1.0 (active), 0.0 (inactive)

- Compound: "Cn1cc([C@]2(O)C(=O)Nc3ccccc32)c2ccccc21"
  Tested target: "Rap guanine nucleotide exchange factor 3 (Homo sapiens) (UniProt O95398)"
  Category label: 0.0
- Compound: "S=C(NCCCN1CCOCC1)Nc1cccc(-c2nnc3n2CCCCC3)c1"
  Tested target: "Rap guanine nucleotide exchange factor 3 (Homo sapiens) (UniProt O95398)"
  Category label: 0.0
- Compound: "CC1(C(=O)Nc2ccc(Cl)cc2)Cc2c(-c3cccc(C(N)=O)c3)ccnc2O1 (stereo unspecified)"
  Tested target: "Rap guanine nucleotide exchange factor 3 (Homo sapiens) (UniProt O95398)"
  Category label: 0.0
- Compound: "O=C1/C(=C/C=C/c2ccco2)SC(=S)N1NS(=O)(=O)c1ccccc1"
  Tested target: "Rap guanine nucleotide exchange factor 3 (Homo sapiens) (UniProt O95398)"
  Category label: 0.0
- Compound: "CCOC(=O)N1CCN(C(=O)CSc2nnc(Cc3ccccc3)o2)CC1"
  Tested target: "Rap guanine nucleotide exchange factor 3 (Homo sapiens) (UniProt O95398)"
  Category label: 0.0
- Compound: "Cc1c(C(=O)NCCO)sc2nc3n(c(=O)c12)CCC3"
  Tested target: "Rap guanine nucleotide exchange factor 3 (Homo sapiens) (UniProt O95398)"
  Category label: 0.0
- Compound: "C=CCc1c(C)c(C#N)c2nc3ccccc3n2c1N1CCCCC1"
  Tested target: "Rap guanine nucleotide exchange factor 3 (Homo sapiens) (UniProt O95398)"
  Category label: 0.0
- Compound: "CCC(=O)C1=C(c2cccc([N+](=O)[O-])c2)N(C(=O)CC)n2c(nnc2-c2ccccc2)S1"
  Tested target: "Rap guanine nucleotide exchange factor 3 (Homo sapiens) (UniProt O95398)"
  Category label: 0.0
- Compound: "COc1ccc(S(=O)(=O)N2C(=O)/C(=C3\\SC(N)=NC3=O)c3ccccc32)cc1"
  Tested target: "Rap guanine nucleotide exchange factor 3 (Homo sapiens) (UniProt O95398)"
  Category label: 0.0
- Compound: "O=C(O)c1ccc(NC2=C/C(=N/S(=O)(=O)c3cccs3)c3ccccc3C2=O)cc1"
  Tested target: "Rap guanine nucleotide exchange factor 3 (Homo sapiens) (UniProt O95398)"
  Category label: 0.0
- Compound: "N#C/C(=C/c1ccc(N2CCOCC2)o1)C(=O)Nc1ccccc1"
  Tested target: "Rap guanine nucleotide exchange factor 3 (Homo sapiens) (UniProt O95398)"
  Category label: 1.0
- Compound: "O=C1NC(=O)C2(CCC(C(=O)O)C2)N1 (stereo unspecified)"
  Tested target: "Rap guanine nucleotide exchange factor 3 (Homo sapiens) (UniProt O95398)"
  Category label: 0.0
- Compound: "COCCn1c(SCC(=O)Nc2ccc3c(c2)CCC3)nc2ccccc2c1=O"
  Tested target: "Rap guanine nucleotide exchange factor 3 (Homo sapiens) (UniProt O95398)"
  Category label: 0.0
- Compound: "C#CCOCCOCCOCCNc1nc(N2CCN(C(=O)[C@H](Cc3cc4ccccc4[nH]3)n3cc([C@@H](N)Cc4ccc(O)cc4)nn3)CC2)nc(N2CCN(C(=O)[C@H](Cc3cc4ccccc4[nH]3)n3cc([C@@H](N)CC(C)C)nn3)CC2)n1"
  Tested target: "Rap guanine nucleotide exchange factor 3 (Homo sapiens) (UniProt O95398)"
  Category label: 0.0
- Compound: "COc1ccc(/C=C/C(=O)NC2CCS(=O)(=O)C2)cc1 (stereo unspecified)"
  Tested target: "Rap guanine nucleotide exchange factor 3 (Homo sapiens) (UniProt O95398)"
  Category label: 0.0
- Compound: "Cc1ccc(S(=O)(=O)NC(=O)Cn2nnc(-c3ccccc3)c2COc2ccc3ccccc3c2)cc1"
  Tested target: "Rap guanine nucleotide exchange factor 3 (Homo sapiens) (UniProt O95398)"
  Category label: 0.0
- Compound: "COc1cc(/C=C2\\SC(=O)N(c3ccccc3Cl)C2=O)cc([N+](=O)[O-])c1O"
  Tested target: "Rap guanine nucleotide exchange factor 3 (Homo sapiens) (UniProt O95398)"
  Category label: 0.0
- Compound: "CC(=O)c1ccc(NC(=O)CSc2nc(Nc3ccccc3)nc(N3CCOCC3)n2)cc1"
  Tested target: "Rap guanine nucleotide exchange factor 3 (Homo sapiens) (UniProt O95398)"
  Category label: 0.0
- Compound: "CCCN(CC(=O)Nc1ccccc1C)C(=O)C1CCN(S(=O)(=O)c2ccccc2C(F)(F)F)CC1"
  Tested target: "Rap guanine nucleotide exchange factor 3 (Homo sapiens) (UniProt O95398)"
  Category label: 0.0
- Compound: "Oc1ccc(NCc2ccccc2OCc2ccc(Cl)cc2)cc1"
  Tested target: "Rap guanine nucleotide exchange factor 3 (Homo sapiens) (UniProt O95398)"
  Category label: 0.0
- Compound: "C=CCN(CC=C)Cc1cc(=O)oc2cc(OC)ccc12"
  Tested target: "Rap guanine nucleotide exchange factor 3 (Homo sapiens) (UniProt O95398)"
  Category label: 0.0
- Compound: "Cc1ccc(S(=O)(=O)Nc2cc(=O)[nH]c(SCC(=O)Nc3cccc(C)c3)n2)cc1"
  Tested target: "Rap guanine nucleotide exchange factor 3 (Homo sapiens) (UniProt O95398)"
  Category label: 0.0
- Compound: "N#Cc1c(NC(=O)c2ccccc2)sc2c1CCCCC2"
  Tested target: "Rap guanine nucleotide exchange factor 3 (Homo sapiens) (UniProt O95398)"
  Category label: 0.0
- Compound: "COc1cccc(C(NC(C)=O)c2nc(-c3csc4ccccc34)cs2)c1 (stereo unspecified)"
  Tested target: "Rap guanine nucleotide exchange factor 3 (Homo sapiens) (UniProt O95398)"
  Category label: 0.0
- Compound: "C#Cc1ccc([C@@H]2C=C(C(=O)NCc3nc4ccccc4[nH]3)O[C@H](OCC)[C@H]2CCCO)cc1"
  Tested target: "Rap guanine nucleotide exchange factor 3 (Homo sapiens) (UniProt O95398)"
  Category label: 0.0
- Compound: "Cc1ccc(-c2csc(NS(=O)(=O)c3cccc(F)c3)n2)o1"
  Tested target: "Rap guanine nucleotide exchange factor 3 (Homo sapiens) (UniProt O95398)"
  Category label: 0.0
- Compound: "Cc1ccccc1CN1C(=O)c2ccccc2Sc2ccc(C(=O)O)cc21"
  Tested target: "Rap guanine nucleotide exchange factor 3 (Homo sapiens) (UniProt O95398)"
  Category label: 0.0
- Compound: "COc1cccc(CC(=O)Nc2ccc(S(=O)(=O)Nc3nccs3)cc2)c1"
  Tested target: "Rap guanine nucleotide exchange factor 3 (Homo sapiens) (UniProt O95398)"
  Category label: 0.0
- Compound: "O=C(O)CCn1cc(/C=C2\\NC(=S)N(c3ccccc3)C2=O)c(-c2ccc(Br)cc2)n1"
  Tested target: "Rap guanine nucleotide exchange factor 3 (Homo sapiens) (UniProt O95398)"
  Category label: 0.0
- Compound: "O=C(NCc1ccco1)c1c[nH]c2ccc(S(=O)(=O)N3CCOCC3)cc2c1=O"
  Tested target: "Rap guanine nucleotide exchange factor 3 (Homo sapiens) (UniProt O95398)"
  Category label: 0.0
- Compound: "CCc1nc2c(OCCOc3ccc(F)cc3)cccn2c1N(C)C(=O)c1ccc(OC)cc1"
  Tested target: "Rap guanine nucleotide exchange factor 3 (Homo sapiens) (UniProt O95398)"
  Category label: 0.0
- Compound: "O=S(=O)(NCc1ccco1)c1ccc(Cl)cc1Cl"
  Tested target: "Rap guanine nucleotide exchange factor 3 (Homo sapiens) (UniProt O95398)"
  Category label: 0.0
- Compound: "NC(=O)COC(=O)/C=C/c1ccc2ccccc2n1"
  Tested target: "Rap guanine nucleotide exchange factor 3 (Homo sapiens) (UniProt O95398)"
  Category label: 0.0
- Compound: "CN(C)c1ccc(/C=C/c2ccnc3ccc4ccccc4c23)cc1"
  Tested target: "Rap guanine nucleotide exchange factor 3 (Homo sapiens) (UniProt O95398)"
  Category label: 0.0
- Compound: "CC(NC(=O)c1sc2ncccc2c1-n1cccc1)c1ccccc1 (stereo unspecified)"
  Tested target: "Rap guanine nucleotide exchange factor 3 (Homo sapiens) (UniProt O95398)"
  Category label: 0.0
- Compound: "C=CCNC(=O)C1CC1(c1cccc(C)c1)c1cccc(C)c1 (stereo unspecified)"
  Tested target: "Rap guanine nucleotide exchange factor 3 (Homo sapiens) (UniProt O95398)"
  Category label: 0.0
- Compound: "CN(C)c1ccc(/C=C/c2ccnc3ccc(F)cc23)cc1"
  Tested target: "Rap guanine nucleotide exchange factor 3 (Homo sapiens) (UniProt O95398)"
  Category label: 0.0
- Compound: "Cc1cc(Nc2cccc(C(F)(F)F)c2)nc2ccc(NC(=O)c3ccc(N(C)C)cc3)cc12"
  Tested target: "Rap guanine nucleotide exchange factor 3 (Homo sapiens) (UniProt O95398)"
  Category label: 0.0
- Compound: "COc1ccc(N(Cc2cccs2)C(=O)c2ccco2)cc1"
  Tested target: "Rap guanine nucleotide exchange factor 3 (Homo sapiens) (UniProt O95398)"
  Category label: 0.0
- Compound: "CC1(C)Cc2ccccc2-c2nnc(-c3ccc4ccccc4n3)n21"
  Tested target: "Rap guanine nucleotide exchange factor 3 (Homo sapiens) (UniProt O95398)"
  Category label: 0.0
- Compound: "O=C(/C=C/c1ccccc1)c1cc(Br)ccc(=O)c1O"
  Tested target: "Rap guanine nucleotide exchange factor 3 (Homo sapiens) (UniProt O95398)"
  Category label: 0.0
